test: Pharmacokinetics from plasma unbound levels in plasma ultrafiltrate (fMPA, fMPAG); format: in vivo, human; conditions: human, plasma ultrafiltrate (unbound level in EDTA plasma); free level in plasma ultrafiltrate; 2 h post-dose; n = 20; mean ± SD; read-out: C2 concentration
QUANTITY KIND: concentration at 2 h (ng/mL)
Answer with a number only, understood to be in ng/mL.

Request the reported concentration at 2 h associated with COc1c(C)c2c(c(O)c1C/C=C(\C)CCC(=O)O)C(=O)OC2 [MPA, Mycophenolic acid]
49
